B1: HDV Ribozyme (parent)
chain: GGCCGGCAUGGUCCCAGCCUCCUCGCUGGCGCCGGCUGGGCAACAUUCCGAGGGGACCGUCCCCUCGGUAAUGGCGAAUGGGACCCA

# Variants of: B1
# experiment-description: self-cleavage, relative activity (ratio to wild type); higher = more cleavage; co-transcriptional
Threshold check on self-cleavage: at or above 0.2 gives Condition met, strictly below gives Condition not met.

>  <variant-label>
U46A C64A

>  <class-assignment>
Condition met

$$$$
>  <variant-label>
G29U G39A

>  <class-assignment>
Condition not met

$$$$
>  <variant-label>
C15A C41G

>  <class-assignment>
Condition met

$$$$
>  <variant-label>
C4G C84U

>  <class-assignment>
Condition met

$$$$
>  <variant-label>
C7G A78C

>  <class-assignment>
Condition not met

$$$$
>  <variant-label>
C22U G59U

>  <class-assignment>
Condition met

$$$$
>  <variant-label>
U72G G81U

>  <class-assignment>
Condition not met

$$$$
>  <variant-label>
C4G C48A

>  <class-assignment>
Condition met

$$$$
>  <variant-label>
G28C C57G

>  <class-assignment>
Condition not met

$$$$
>  <variant-label>
G28A A71U

>  <class-assignment>
Condition not met

$$$$
>  <variant-label>
C48U C62G

>  <class-assignment>
Condition met

$$$$
>  <variant-label>
G1A A70U

>  <class-assignment>
Condition not met

$$$$
>  <variant-label>
U69G A78U

>  <class-assignment>
Condition met

$$$$
>  <variant-label>
G6C C26A

>  <class-assignment>
Condition met

$$$$
>  <variant-label>
C26G G38C

>  <class-assignment>
Condition not met

$$$$
>  <variant-label>
U9C G68A

>  <class-assignment>
Condition met

$$$$
>  <variant-label>
C7U C48A

>  <class-assignment>
Condition met

$$$$
>  <variant-label>
C19U U79C

>  <class-assignment>
Condition not met

$$$$
>  <variant-label>
G50U A83C

>  <class-assignment>
Condition met

$$$$
>  <variant-label>
C58U C63A

>  <class-assignment>
Condition met

$$$$
>  <variant-label>
G55C A71C

>  <class-assignment>
Condition met

$$$$
>  <variant-label>
U23A C85G

>  <class-assignment>
Condition met

$$$$
